All figures here come from patent US11591334B2.

test system: HBV; test: Determination of anti-HBV activity in HepG2.2.15 cell (Experiment 2, HBV DNA in supernatant by qPCR); format: cell-based; details: Hepatitis B virus, HepG2.2.15, read-out: Experiment 2 Cell experiment EC50 (nM)
RECORDED METRIC: EC50

In [3]: df
Out[3]:
                                   compound  recorded_result
0  O=C(Nc1ccc(F)c(F)c1)c1c(Cl)c(S(=O)(=O)N2C3CCC2CC(O)(c2cc(-c4ccccc4)on2)C3)c2n1CC=C2 (centres unmarked) [Compound 10ww]    0.1 to 100 nM

// below: EC50 requested for another compound
Find the measured EC50: item Cc1c(S(=O)(=O)N2C3CCC2CC(O)(CO)C3)c2n(c1C(=O)Nc1cc(F)nc(C#N)c1)CC=C2 (centres unmarked) [Compound 10vv] , target or system HBV. 0.1 to 100 nM

====

assay: Determination of cytotoxicity (Experiment 3, resazurin assay); format: cell-based; conditions: human; HepG2 cells, incubated for 4 days, resazurin assay; read-out: Experiment 3 Cytotoxicity CC50
RECORDED METRIC: CC50 at 4 days

Example entries and their recorded answers appear below.
COMPOUND	RECORDED METRIC	RECORDED RESULT
Cc1c(NS(=O)(=O)NC2(C)COC2)c2n(c1C(=O)Nc1ccc(F)c(F)c1)CCC2 [Compound 90g]	CC50 at 4 days	> 30 µM
C[C@@H](NS(=O)(=O)c1c(Cl)c(C(=O)Nc2ccnc(Cl)c2)n2c1CCCC2)C(F)(F)F [Compound 40c]	CC50 at 4 days	> 30 µM

Quick one: give me CC50 at 4 days for each item below, same order please.
1. Cc1c(S(=O)(=O)NC2C3CCC2CC(O)(c2cc(-c4ccccc4)on2)C3)c2n(c1C(=O)Nc1cc(F)nc(C#N)c1)CCC=C2 (stereo not drawn) [Compound 30t]
2. Cc1c(S(=O)(=O)NC(C)C(F)(F)F)c2n(c1C(=O)Nc1ccc(F)c(C#N)c1)CCCC2 (stereo not drawn) [Compound 40f]
3. CC(CO)NC(=O)Nc1c(Cl)c(C(=O)Nc2cc(F)nc(C#N)c2)n2c1CCCC2 (stereo not drawn) [Compound 100p]
4. CC(NC(=O)Nc1c(Cl)c(C(=O)Nc2ccnc(Cl)c2)n2c1CCCCC2)C(F)(F)F (stereo not drawn) [Compound 100q]
5. O=C(Nc1ccc(F)c(F)c1)c1c(Cl)c(S(=O)(=O)NC2C3CCC2CC(O)(CO)C3)c2n1CCC2 (stereo not drawn) [Compound 20kk]
6. CC(NS(=O)(=O)c1c2[nH]ccc2c(C(=O)Nc2ccc(F)c(C#N)c2)n1C)C(F)(F)F (stereo not drawn) [Compound 80b]

["> 30 µM", "> 30 µM", "> 30 µM", "> 30 µM", "> 30 µM", "> 30 µM"]

Quick one: give me CC50 at 4 days for each item below, same order please.
1. C[C@@H](NS(=O)(=O)c1c(Cl)c(C(=O)Nc2ccc(F)c(F)c2)n2c1CCCCC2)C(F)(F)F [Compound 60a]
2. C[C@@H](NS(=O)(=O)c1c(Cl)c(C(=O)Nc2ccc(F)c(F)c2)n2c1C=CCCC2)C(F)(F)F [Compound 50a]
3. C[C@@H](NS(=O)(=O)Nc1c(Cl)c(C(=O)Nc2ccc(F)c(F)c2)n2c1CCC2)C(F)(F)F [Compound 90a]

["> 30 µM", "> 30 µM", "> 30 µM"]

Quick one: give me CC50 at 4 days for each item below, same order please.
1. CC(NS(=O)(=O)c1c(Cl)c(C(=O)Nc2cc(F)c(F)c(F)c2)n2c1CCC2)C(F)(F)F (stereo not drawn) [Compound 20b]
2. N#Cc1cc(NC(=O)c2c(Cl)c(S(=O)(=O)NC3C4CCC3CC(O)(c3cc(-c5ccccc5)on3)C4)c3n2CCC=C3)cc(F)n1 (stereo not drawn) [Compound 30s]
3. CC(CO)NS(=O)(=O)c1c(Cl)c(C(=O)Nc2ccc(F)c(C#N)c2)n2c1CCC2 (stereo not drawn) [Compound 20dd]
4. Cn1c(C(=O)Nc2cc(F)nc(C#N)c2)c2cc[nH]c2c1S(=O)(=O)NC1(C)COC1 [Compound 80f]

1: > 30 µM; 2: > 30 µM; 3: > 30 µM; 4: > 30 µM

====

assay: Determination of cytotoxicity (Experiment 3, resazurin assay); format: cell-based; conditions: human
RECORDED METRIC: CC50 at 4 days

In [3]: df
Out[3]:
                                   compound  recorded_result
0  Cc1c(S(=O)(=O)N2C3CCC2CC(O)(CO)C3)c2n(c1C(=O)Nc1cc(F)nc(C#N)c1)CC=C2 (centres unmarked) [Compound 10vv]          > 30 µM

// below: CC50 at 4 days requested for another compound
# lookup: CC50 at 4 days of O=C(Nc1ccc(F)c(F)c1)c1c(Cl)c(S(=O)(=O)N2C3CCC2CC(O)(c2cc(-c4ccccc4)on2)C3)c2n1CC=C2 (centres unmarked) [Compound 10ww] > 30 µM

====

molecular target: C150 protein (Hepatitis B virus genotype D subtype adw, UniProt P03147, C107A/C48A/C61A/R150C); construct: purchased WuXi Apptec Co., Ltd; test: In vitro anti-HBV nucleocapsid assembly activity test (Experiment 1, protein experiment); type: biochemical
Sequence (P03147 1-150 C48A/C61A/C107A/R150C): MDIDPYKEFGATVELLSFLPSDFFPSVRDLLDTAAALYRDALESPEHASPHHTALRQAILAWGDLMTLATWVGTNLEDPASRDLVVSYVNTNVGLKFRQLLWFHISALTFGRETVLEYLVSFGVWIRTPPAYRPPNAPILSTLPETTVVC
For each entry below, report its IC50 value.

In [3]: df
Out[3]:
                                   compound  recorded_result
0  C[C@@H](NS(=O)(=O)c1c(Cl)c(C(=O)Nc2ccc(F)c(C#N)c2)n2c1C=CCCC2)C(F)(F)F [Compound 50b]         > 100 µM
1  C[C@@H](NS(=O)(=O)c1c(Cl)c(C(=O)Nc2ccc(F)c(C#N)c2)n2c1CCCC2)C(F)(F)F [Compound 40b]      1 to 100 µM
2  CC(NS(=O)(=O)c1c(Cl)c(C(=O)Nc2cc(F)c(F)c(F)c2)n2c1CCC2)C(F)(F)F (stereo not shown) [Compound 20b]           < 1 µM
3  O=C(Nc1ccc(F)c(F)c1)c1c(Cl)c(S(=O)(=O)N2C3CCC2CC(O)(c2cc(-c4ccccc4)on2)C3)c2n1CC=C2 (stereo not shown) [Compound 10ww]      1 to 100 µM
4  CC(NC(=O)Nc1c(Cl)c(C(=O)Nc2ccnc(Cl)c2)n2c1CCC2)C(F)(F)F (stereo not shown) [Compound 100b]      1 to 100 µM
5  Cc1c(NC(=O)NC(C)C(F)(F)F)c2n(c1C(=O)Nc1ccnc(Cl)c1)CCC2 (stereo not shown) [Compound 100d]      1 to 100 µM

// below: IC50 requested for another compound
# lookup: IC50 of C[C@@H](NS(=O)(=O)c1c(Cl)c(C(=O)Nc2ccnc(Cl)c2)n2c1CCCC2)C(F)(F)F [Compound 40c] 1 to 100 µM

====

Assay: Determination of cytotoxicity (Experiment 3, resazurin assay)
Type: cell-based
Conditions: human; HepG2 cells, incubated for 4 days, resazurin assay; read-out: Experiment 3 Cytotoxicity CC50
Experimental: Compound dilution. All the compounds for in vitro anti-HBV activity assay and cytotoxicity assay were 3-fold diluted into 8 concentrations. The final concentration of the tested compound was 30 μM, the final starting concentration of reference compound GLS4 was 1 μM, and the final concentration of DMSO was 0.5%. Experiment 3: Determination of Cytotoxicity The cytotoxicity of the test compound was tested using HepG2 cells. […] Cell activity was assessed using the resazurin assay.
RECORDED METRIC: CC50 at 4 days

>>> print(df.to_string())
                                   molecule  recorded_result
0  C[C@@H](NS(=O)(=O)c1c(Cl)c(C(=O)Nc2ccc(F)c(C#N)c2)n2c1CCCCC2)C(F)(F)F [Compound 60b]          > 30 µM

Quick one: give me CC50 at 4 days for each item below, same order please.
1. C[C@@H](NS(=O)(=O)c1c(Cl)c(C(=O)Nc2ccnc(Cl)c2)n2c1C=CCC2)C(F)(F)F [Compound 30c]
2. C[C@@H](NS(=O)(=O)c1c(Cl)c(C(=O)Nc2ccc(F)c(C#N)c2)n2c1CCCC2)C(F)(F)F [Compound 40b]
3. CC(NS(=O)(=O)c1c(Cl)c(C(=O)Nc2ccnc(C(F)F)c2)n2c1C=CC2)C(F)(F)F (stereo not shown) [Compound 10d]
4. N#Cc1cc(NC(=O)c2c(Cl)c(S(=O)(=O)NC3C4CCC3CC(O)(CO)C4)c3n2CCC3)cc(F)n1 (stereo not shown) [Compound 20ll]

> 30 µM
> 30 µM
> 30 µM
> 30 µM

Quick one: give me CC50 at 4 days for each item below, same order please.
1. Cc1c(NC(=O)NC(C)C(F)(F)F)c2n(c1C(=O)Nc1ccnc(Cl)c1)CCC2 (stereo not shown) [Compound 100d]
2. Cc1c(S(=O)(=O)NC2(C)COC2)c2n(c1C(=O)Nc1ccnc(C(F)F)c1)CC=C2 [Compound 10aa]

1: > 30 µM; 2: > 30 µM
